Values compiled from patent US8435981B2.

EXPERIMENTAL SYSTEM: Met kinase (Homo sapiens)
Sequence (P08581 25-1390): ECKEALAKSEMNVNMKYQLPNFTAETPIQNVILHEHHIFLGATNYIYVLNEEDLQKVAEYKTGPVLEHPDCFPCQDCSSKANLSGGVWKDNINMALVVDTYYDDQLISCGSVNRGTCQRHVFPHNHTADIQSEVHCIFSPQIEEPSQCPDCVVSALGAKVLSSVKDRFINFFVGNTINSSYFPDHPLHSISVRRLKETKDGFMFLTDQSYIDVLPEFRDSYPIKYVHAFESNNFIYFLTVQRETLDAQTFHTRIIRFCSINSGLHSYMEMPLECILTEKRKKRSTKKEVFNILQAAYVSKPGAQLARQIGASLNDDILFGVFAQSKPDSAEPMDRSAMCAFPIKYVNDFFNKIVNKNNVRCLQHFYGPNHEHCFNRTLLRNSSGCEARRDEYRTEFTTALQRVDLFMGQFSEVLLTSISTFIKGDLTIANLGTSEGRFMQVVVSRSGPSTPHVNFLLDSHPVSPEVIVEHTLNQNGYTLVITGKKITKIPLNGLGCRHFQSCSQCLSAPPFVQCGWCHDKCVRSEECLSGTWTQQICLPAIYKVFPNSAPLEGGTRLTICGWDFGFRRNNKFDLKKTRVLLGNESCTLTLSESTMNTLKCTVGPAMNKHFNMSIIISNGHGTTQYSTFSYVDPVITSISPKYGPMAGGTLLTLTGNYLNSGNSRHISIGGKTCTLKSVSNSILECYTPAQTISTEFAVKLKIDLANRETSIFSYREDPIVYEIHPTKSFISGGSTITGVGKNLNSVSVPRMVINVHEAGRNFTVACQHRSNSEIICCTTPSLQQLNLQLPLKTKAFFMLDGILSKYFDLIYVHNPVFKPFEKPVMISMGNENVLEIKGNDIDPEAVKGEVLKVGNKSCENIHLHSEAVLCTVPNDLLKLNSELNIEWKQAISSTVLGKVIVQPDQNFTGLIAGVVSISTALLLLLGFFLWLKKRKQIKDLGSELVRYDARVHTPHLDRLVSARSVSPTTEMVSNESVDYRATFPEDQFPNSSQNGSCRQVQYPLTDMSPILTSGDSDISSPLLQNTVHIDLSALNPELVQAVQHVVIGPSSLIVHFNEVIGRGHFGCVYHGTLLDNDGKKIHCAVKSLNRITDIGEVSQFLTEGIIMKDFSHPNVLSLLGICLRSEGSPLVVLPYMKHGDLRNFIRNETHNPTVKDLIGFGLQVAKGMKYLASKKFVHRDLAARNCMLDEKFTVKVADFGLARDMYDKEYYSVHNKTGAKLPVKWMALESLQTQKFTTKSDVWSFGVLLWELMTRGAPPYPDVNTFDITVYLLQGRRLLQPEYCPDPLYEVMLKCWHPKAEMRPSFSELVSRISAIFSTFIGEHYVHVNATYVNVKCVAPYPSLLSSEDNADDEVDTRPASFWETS
TEST DESCRIPTION: Met kinase inhibition, cell assay
Type: cell-based
EXPERIMENTAL READOUT: IC50

{"COMPOUND": "COCCCN1CCN(c2nc(-c3cccc(Cn4nc(-c5cc(F)cc(F)c5)ccc4=O)c3)no2)CC1 [Compound A124]", "EXPERIMENTAL READOUT": "IC50", "REPORTED RESULT": "10 to 1000 nM"}
{"COMPOUND": "O=c1ccc(-c2cc(F)cc(F)c2)nn1Cc1cccc(-c2noc(N3CCN(CCO)CC3)n2)c1 [Compound A111]", "EXPERIMENTAL READOUT": "IC50", "REPORTED RESULT": "10 to 1000 nM"}
{"COMPOUND": "CCOCCN1CCN(c2nc(-c3cccc(Cn4nc(-c5cc(F)cc(F)c5)ccc4=O)c3)no2)CC1 [Compound A123]", "EXPERIMENTAL READOUT": "IC50", "REPORTED RESULT": "10 to 1000 nM"}
